Each recorded value in this set is attributed to the supplement of paper PMC9170038.

- Test system: K4 kissing-loop RNA reporter;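 also: bound reporter read as fluorescence of individual clusters on recovered sequencing chips by microscopy, with normalized cluster intensities fitted with a binding model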
- test: apparent KD of K4 kissing-loop reporter; higher = weaker reporter binding
- measurement-setup: Eterna round: R107; input ligand: none
Would you mind labelling by apparent KD of K4 kissing-loop reporter? At or over 300 nM is TRUE, under is FALSE.

Example entries and their recorded answers appear below.
AACGUUUUGAGAAGGAGCGCGAUAAGCAGUGAUGUUGCUAUAAUUCUAUUUCUAUUUAAUUCGCAGGUAGGUCGCUCAAUACGUA [JR_SSArginiB_Sub019]; FALSE
CCUAUCUCAUACGAUACCAGUCAACGAGUGAUGUUCGAAUAAAUAAAUUUGCCAAAUAAUGACCCUUGGCAGCGUAUGGGAUAGG [Ex Theophylline B K4 15]; TRUE
UGUGUUUACCUGACUCAGUGAUGUUGAGAAGGAGCGUGCAAAAGCACAGGUAGGUCGCUCAACCUAAAUUCAGGUGAGCACUAAA; FALSE

// inclusive: apparent KD of K4 kissing-loop reporter at least 300 nM? input: CGCGCGCGCGCGCGCGCGCGCGCGAAUGAUACCAGUAUAUAAGAAUACCCUUGGCAGCAUAAGAAAGAUAUAGUGAUGUUGUAUA [SSTheophA.B]
FALSE

// same read-out, input: GUACGCUUCCGAGUGAUGUUCGGUAAUAGUUAGGAUAUCGUUUUUUCGAGAAGGAACUGAAUGAGGAAACUCGUUCGAAGUGUAC [FMN A 16]
TRUE

Now try UUAUAUAAUUUGUCUUUUUUAACAUUAAGUCAGGAUAUCGUAUAUUCGAGAAGGGACACAUGCUAGUGAUGUUAGCUAUUUCUUU [JR_ExcFMNA_Sub016] .
FALSE

Would you mind doing GGAUCCACCAGUGAUGUUGGAGAAAACUCUAAGGAUAUGACGAAAGUCAGAAGGUGGUAGACUGGACAAAGUCCGGUGGGAUCCA [FmnA10 U30+G78] as well?
TRUE

Same thing, different sequence: CAACCCUGCUUUUUCGAGUUUUAGGGAUGACGAGGACCGGUACGGCCGCCACUCGACUACACUGUUCAGUGAUGUUGAACGGCGG [Teveza]
FALSE

###

- Test system: MS2 coat protein
- test: apparent KD of MS2 coat protein; designed switch direction (-1 OFF switch, 1 ON switch): -1; higher = weaker reporter binding
- measurement-setup: Eterna round: R95; input ligand: FMN 200 uM
Assign 1 whenever apparent KD of MS2 coat protein does not fall below 30 nM; assign 0 whenever it does.

The examples below pair each entry with its known result.
GCACGCAAAGGAUAUCGGAAAGAAAACAUGAGGAUCACCCAUGUAUAUAUCAAAUGGGUGCGAGAAGGUUGAGUGA [Xeleonge] (puzzle: Exclusion 5); 1
UGUACUAACACGGAAGUGUUAGUACUAUAAGCUUGUGUUACAUGAGGAUCACCCAUGUCCUCAUAAGCUCGUCUUAU [Mat - Sensor v3 - Turn-off var 2 - D74] (puzzle: Sensor v3, turn-off variant 2); 1
AAAAGGCAGCAGGAUAUAGUCACCAUCGGGUUGCUAGAAGGGCUAACAUGAGGAUCACCCAUGUGGGUGCAAAA [Soinsoan] (puzzle: Exclusion 6); 1
CUGAGCAGACGGAGAUCCAACAUGAGGAUCACCCAUGUCUCAAAAGCUUUUUGCUCAUCUUAUCCUCCUCUGUUCUC [Edcesobi] (puzzle: Sensor v3, turn-off variant 1); 0
AGUACUAACACGCAUGUGUUAGUACAAUAAGCUUGUGAAACAUGAGGAUCACCCAUGUCCUCAUAAGCUCGUCUUAU [salish99_TOv2_r3_068] (puzzle: Sensor v3, turn-off variant 2); 0

Entry AAAAAGCGAGGAUAUACAGGAAAAGAAAAGAAAAGAAAAGCACAUGAGGAUCACCCAUGUAGAAGGCGCGAAAA [Exclusion 2 #3] (puzzle: Exclusion 2) : is its apparent KD of MS2 coat protein no less than 30 nM?
0

Try GGUUGACAUGAGGAUCACCCAUGUGAGGAUAUGCGAGAGAAAAAAGUGAGGAAGAAACGCAGAAGGCGCUGUCG [salish99-ex1_r3_010] (puzzle: Exclusion 1) next.
1

# repeat for AGUAACCGUCACGAAAGUGAUGGUUACACAAGUAAUGAAACAUGAGGAUCACCCAUGUCCUCAUUUGCUCGUCUUAU [Sensor 3 - 39] (puzzle: Sensor v3, turn-off variant 2)
1

How about AGUACAUACACGAAAGUGUAUGUACAAUAAGCUUGUGGAACAUGAGGAUCACCCAUGUCCUCAUAAGCUCGUCUUAU [Mat - Sensor v3 - Turn-off var 2 - D30] (puzzle: Sensor v3, turn-off variant 2) ?
0

Next entry: AAAGGCUAAGGAUAUGCACACAUAAACAUGAGGAUCACCCAUGUGUUCCCAGCAACCAUAGCAGAAGGUAGCGAAA [Rarebeve] (puzzle: Exclusion 5)
1

###

- Tested on: MS2 coat protein
- test: apparent KD of MS2 coat protein, switch OFF state (with FMN for OFF switches, without FMN for ON switches); designed switch direction (-1 OFF switch, 1 ON switch): 1; higher = weaker reporter binding
- measurement-setup: FMN input: 0 or 200 uM; Eterna round: R93 (includes R88 designs)
Recorded apparent KD of MS2 coat protein values for a group of sequences are listed next.

Solved cases (5 shown):
GACAGACAUGAGGAUCACCCAUGUACAAACGUACAAGGAUAUGUGUGGAAACCGUACUAUACAGAAGGUGUAUGUC [SS1 - 91]; 0.0805 µM
ACUACACAUGAGGAUCACCCAUGUCAGGUGGGACUAGGAUAUUAUAAACCAGAGUAAUUAUAAGAAGGAGUAGAAA [JR_SS001_Sub307]; 0.0422 µM
AAUAAUUAUACGAAGGAUAUCGGUAAUUAGACAUGAGGAUCACCCAUGUAAUAAGGUUAAAUAAACGAGAAGGUCGAGGGUGAAA [JR_SS002_Sub501]; 0.0415 µM
AAUACACAUGGUCAGGAUAUCGCAGCUAGGACAUGAGGAUCACCCAUGUCGCACGUAACCGUAACCGAGAAGGGACAGGGUGACC [JR_SS002_Sub409]; 0.0152 µM
GACAAACAUGAGGAUCACCCAUGUAGACAUAUGGGAGGAUAUACACAGACGAAAGUCAAAGUAGAAGGCCUACAAG [77%, Mat - Mod of Eli - With 4 more C's]; 0.0913 µM

Field request: apparent KD of MS2 coat protein | item: AAACCACAUGAGGAUCACCCAUGUGAAAAAAAUACAGGAUAUGGAAACACGAAAGUGAAACCAGAAGGGUGAAAAA [77%, Mat - Mod of Eli, 28]
0.0166 µM

Repeat for the following sequence: AAAUAGUGCCUGGAGGAUAUGUCGCAUGACACAUGAGGAUCACCCAUGUGGUAACACAGAGGGUGGCAGAAGGCUGGGUGCAAAC [Mod 4 of Pariah 6 (Round1) by Hyphema]
0.26 µM

Item: CGUGAACAUGAGGAUCACCCAUGUGAAAAACAUAGAGGAUAUGUCGCGUGAGUGCAAAAGACAGAAGGCUAUCGUG [Mod 4 of Round 1 starryjess' Mod pf Nando]
0.0351 µM

And what about the sequence AUGAAGGAGAGAGAGGAUAUCCAAAGGGAAACAUGAGGAUCACCCAUGUAGAAGGUAGGAAAUUGGGAGAAGGCUCAAGAGAGAG [salish99-ss2-111] ?
0.0269 µM

Next record, please: AAAAGACAUGAGGAUCACCCAUGUAAAGACGUAGGAGGAUAUGUCGUGAAAAAAGACUUGGCAGAAGGCCUGUGUC [SS1 - 40]
0.0266 µM

AGGAAACAUGAGGAUCACCCAUGUAAAAAAUAGGGAGGAUAUACUAGAAGAAACAAAAUAGUAGAAGGUCCAAAAA [75%, Ex sub1, 24] , same question.
0.0276 µM

Lookup CAGGACGUAGGAUAGGAUAUAUGAAUAAUUACAUGAGGAUCACCCAUGUCCAUUUAUAUGGGAACAUAGAAGGGUUGUGGUUAUG [Mat - Same state - Malcolm Mod - D144]
0.315 µM

Next sequence: UCAAAACAUGAGGAUCACCCAUGUAGUCUAAAGCGAGGAUAUGGGUUUCUUUAAAGAGUACCAGAAGGCGCCAAAA [Entibi]
0.0609 µM

# repeat for GGGAGACAUGAGGAUCACCCAUGUGAGAAGAGGCGAGGAUAUCGAAAGAAAGAAGAGAAACGAGAAGGCGCGAGAA [salish99-SS1-049]
0.0644 µM

What about AAAAAAUAAAAAAAGGAUAUAAAAGGUAGUACAUGAGGAUCACCCAUGUUCUACCAAAAAAUAAAAAAGAAGGAAAAAUAAAAAA [SS2: MS2 15] ?
0.0164 µM

Again, but for GAAAAACAUGAGGAUCACCCAUGUAGAAAUAUGGGAGGAUAUACAAAGACGAAAGUCAAAGUAGAAGGCCUAUAAG [Starry Same State 1.5 (mat747 round 1 mod)]
0.0333 µM

What about AAAAGACAUGAGGAUCACCCAUGUCAAAAGACAUGAGGAUAUGUACAGACUUCGGUCUGUACAGAAGGCAUGUAAA [SS1 - 1069] ?
0.0216 µM

And what about the sequence GAAAAACAUGAGGAUCACCCAUGUGUAAAUAUGGGAGGAUAUACAAAGACGGAAGUCAAAGUAGAAGGCCUAAAAG [Mat - Same State 1 - Eli mod - D11] ?
0.111 µM

Quick one: AAAAUACAUGAGGAUCACCCAUGUGAGAAAAACGCAGGAUAUGCCCGUUGAAAAAGGCGGGCAGAAGGGUGCCGAA [SameState1-III]
0.0506 µM

Another: AAAAGACAUGAGGAUCACCCAUGUGAAAACGUGCGAGGAUAUGUAUGGAAACUAUACUGUACAGAAGGCGCGUGUC [SS1 - 82]
0.0254 µM

Then what about the sequence AAAAGGGCGACACAGGAUAUGUUGACCCUAACAUGAGGAUCACCCAUGUGCAUUUAGGGUCGUGCGCAGAAGGGUGCAGCUCGGA [Enatin] ?
0.0418 µM

And what about the sequence AAAUAAAGGACUGAGGAUAUACCACAUGAAACAUGAGGAUCACCCAUGUUAAAAAACAGAGGGUGGUAGAAGGCAGUCCACAAAC [Same State 2.5e ( so lets mod hyphema)] ?
0.0158 µM

Entry to check: AGAAAUAAAGGAGAGGAUAUCCAAAAGAAAACAUGAGGAUCACCCAUGUAAAAGAAAAUAAAAUGGGAGAAGGCUUCAAAUAAGA [Starry modified V4]
0.0464 µM

What do you have for UAAAAUAAAACAUAGGAUAUCAAAAUAAAAACAUGAGGAUCACCCAUGUGAAAACAUGAGAAGGAUGAGAAGGAAAAUAAAAUAA [Meechl SS2 R2 m1] ?
0.0516 µM
